Tested on: 40mer dsDNA
PROCEDURE TEXT: Fluorescence enhancement of dye with 40mer dsDNA
Assay type: binding
ASSAY SETUP: fluorescence 40-mer ds-DNA vs ss-DNA
REPORTED METRIC: Ratio ds/ss

{"COMPOUND": "CCN(CC)c1ccc2c(/C=C3\\Sc4ccccc4N3C)cc(N(C)CCC[N+](C)(C)C)[o+]c2c1", "REPORTED METRIC": "Ratio ds/ss", "OBSERVED": 1.9}
{"COMPOUND": "CN1C(=Cc2cc[n+](C)c3ccccc23)Sc2ccccc21 [TO, Thiazole Orange, reference compound]", "REPORTED METRIC": "Ratio ds/ss", "OBSERVED": 3.5}
{"COMPOUND": "CCN(CC)c1ccc2c(/C=C3\\Sc4ccccc4N3C)cc(N3CC[N+](C)(CCO)CC3)[o+]c2c1", "REPORTED METRIC": "Ratio ds/ss", "OBSERVED": 1.7}
{"COMPOUND": "CCN1c2cc3[o+]c(N(C)CCCN(C)C)cc(/C=C4\\Sc5ccccc5N4C)c3cc2C(C)=CC1(C)C", "REPORTED METRIC": "Ratio ds/ss", "OBSERVED": 2.1}
{"COMPOUND": "CCN(CC)c1ccc2c(/C=C3\\Oc4ccccc4N3CC)cc(-c3ccccc3)[o+]c2c1", "REPORTED METRIC": "Ratio ds/ss", "OBSERVED": 1.5}
{"COMPOUND": "CCCN(CCCN(C)C)C1=C/C(=C\\c2sc3ccccc3[n+]2C)c2ccccc2N1c1ccccc1 [SYBR Green, reference compound]", "REPORTED METRIC": "Ratio ds/ss", "OBSERVED": 7.5}
